target: Phospholipase D1 (Homo sapiens) + Phospholipase D1 (Homo sapiens) (UniProt Q13393+Q13393); assay: PLD1 inhibition potency in cells, dose response, cell-based, Lib32, assay 2A (AID 624003); settings: cellular PLD1 activity assay
Sequence (Q13393 whole entry, looked up): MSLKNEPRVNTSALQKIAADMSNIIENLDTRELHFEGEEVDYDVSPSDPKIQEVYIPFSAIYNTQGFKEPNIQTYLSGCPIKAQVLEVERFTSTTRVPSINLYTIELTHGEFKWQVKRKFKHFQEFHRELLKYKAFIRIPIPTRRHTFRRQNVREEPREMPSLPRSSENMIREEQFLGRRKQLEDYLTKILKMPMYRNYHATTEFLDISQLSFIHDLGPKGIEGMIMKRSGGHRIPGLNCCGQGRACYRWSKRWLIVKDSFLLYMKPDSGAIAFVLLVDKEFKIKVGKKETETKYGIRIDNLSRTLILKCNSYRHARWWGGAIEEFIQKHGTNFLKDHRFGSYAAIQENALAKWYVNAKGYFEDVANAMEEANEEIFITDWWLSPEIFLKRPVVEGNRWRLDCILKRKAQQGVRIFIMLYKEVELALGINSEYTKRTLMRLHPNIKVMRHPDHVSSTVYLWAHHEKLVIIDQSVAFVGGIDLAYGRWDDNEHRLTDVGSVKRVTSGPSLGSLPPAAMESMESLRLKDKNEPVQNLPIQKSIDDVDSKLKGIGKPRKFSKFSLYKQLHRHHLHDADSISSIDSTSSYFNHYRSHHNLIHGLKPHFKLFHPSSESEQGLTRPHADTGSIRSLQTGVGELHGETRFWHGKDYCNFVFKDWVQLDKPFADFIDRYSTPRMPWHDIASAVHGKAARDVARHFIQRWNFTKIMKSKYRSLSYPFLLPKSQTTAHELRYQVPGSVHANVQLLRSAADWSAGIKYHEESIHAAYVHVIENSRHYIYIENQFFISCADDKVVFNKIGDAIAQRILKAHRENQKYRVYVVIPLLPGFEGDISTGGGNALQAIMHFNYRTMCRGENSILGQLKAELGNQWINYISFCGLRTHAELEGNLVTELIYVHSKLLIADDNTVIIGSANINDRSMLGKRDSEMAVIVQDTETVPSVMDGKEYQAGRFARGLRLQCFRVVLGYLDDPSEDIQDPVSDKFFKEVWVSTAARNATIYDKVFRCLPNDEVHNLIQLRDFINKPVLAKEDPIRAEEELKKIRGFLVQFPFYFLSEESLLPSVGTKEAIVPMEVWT
Sequence (Q13393 whole entry, looked up): as above
reported_property: IC50

test_smiles: COc1cc(C(=O)NCCN2CCC3(CC2)C(=O)NCN3c2cccc(F)c2)cc(OC)c1OC
target_or_system: Phospholipase D1 (Homo sapiens) + Phospholipase D1 (Homo sapiens) (UniProt Q13393+Q13393)
IC50: 4320 nM
//
test_smiles: C[C@@H](CN1CCC2(CC1)C(=O)NCN2c1cccc(F)c1)NC(=O)c1ccc(F)cc1
target_or_system: Phospholipase D1 (Homo sapiens) + Phospholipase D1 (Homo sapiens) (UniProt Q13393+Q13393)
IC50: 20 nM
//
test_smiles: O=C(NCCN1CCC2(CC1)C(=O)NCN2c1cccc(F)c1)c1ccc(Br)cc1
target_or_system: Phospholipase D1 (Homo sapiens) + Phospholipase D1 (Homo sapiens) (UniProt Q13393+Q13393)
IC50: 1540 nM

Below are some compounds; for each one, tell me its IC50.
1. C[C@@H](CN1CCC2(CC1)C(=O)NCN2c1cccc(F)c1)NC(=O)c1cccc([N+](=O)[O-])c1
2. COc1cc(C(=O)N[C@@H](C)CN2CCC3(CC2)C(=O)NCN3c2cccc(F)c2)cc(OC)c1OC
3. C[C@@H](CN1CCC2(CC1)C(=O)NCN2c1cccc(F)c1)NC(=O)c1ccc(F)c(F)c1

OUT:
1: 122 nM; 2: 22 nM; 3: 86 nM

Provide reported IC50 for each item, in the same order as listed.
1. C[C@@H](CN1CCC2(CC1)C(=O)NCN2c1cccc(F)c1)NC(=O)c1cccc(F)c1
2. C[C@@H](CN1CCC2(CC1)C(=O)NCN2c1cccc(F)c1)NC(=O)c1ccc(F)cc1F

OUT:
73 nM
136 nM
